# measuredTarget: Class C β-lactamase of Enterobacter cloacae P-99 (Enterobacter cloacae)
# assayProcedure: IC50 for inhibition of Class C β-lactamase of Enterobacter cloacae P-99 (nitrocefin hydrolysis)
# Format: biochemical
# conditionParameters: Table 2; compounds of formula IV; procedure similar to Table 1; read-out: IC50 Values for Inhibition of β-lactamase Derived from P-99
# Procedure: Representative compounds of formula I were evaluated as inhibitors of the Class C β-lactamase of Enterobacter cloacae P-99, a cephalosporinase, and TEM-1, a penicillinase, by relative IC50 analysis. The IC50 value represents the concentration of inhibitor required to effect a 50% loss of activity of free enzyme. The IC50 value of each compound was determined as follows. […]
Listing of entries alongside the reported IC50.
Just the number please, in nM, no unit attached.

Please review the following examples before continuing.
[
  {
    "molecule": "COC(=O)/C(Cl)=C/C1=C(C(=O)O)N2C(=O)/C(=C/c3ccccn3)C2S(=O)(=O)C1 (stereo not shown) [Compound 13f]",
    "measuredTarget": "Class C β-lactamase of Enterobacter cloacae P-99 (Enterobacter cloacae)",
    "IC50 / nM": 200
  },
  {
    "molecule": "CC(C)(C)OC(=O)/C=C/C1=C(C(=O)O)N2C(=O)/C(=C/c3ccccn3)C2S(=O)(=O)C1 (stereo not shown) [Compound 13e]",
    "measuredTarget": "Class C β-lactamase of Enterobacter cloacae P-99 (Enterobacter cloacae)",
    "IC50 / nM": 1480
  },
  {
    "molecule": "O=C(O)/C=C/C1=C(C(=O)O)N2C(=O)/C(=C/c3ccccn3)C2S(=O)(=O)C1 (stereo not shown) [Compound 13g]",
    "measuredTarget": "Class C β-lactamase of Enterobacter cloacae P-99 (Enterobacter cloacae)",
    "IC50 / nM": 310
  }
]

Now look at this one.
Ask: Give its IC50 value. Item: O=C(O)C1=C(/C=C/c2cccc[n+]2[O-])CS(=O)(=O)C2/C(=C\c3ccccn3)C(=O)N12 (stereo not shown) [Compound 13c]
Reply: 600

* * *

# measuredTarget: Class C β-lactamase of Enterobacter cloacae P-99 (Enterobacter cloacae)
# assayProcedure: IC50 for inhibition of Class C β-lactamase of Enterobacter cloacae P-99 (nitrocefin hydrolysis)
# Assay type: biochemical
# conditionParameters: read-out: IC50 Values for Inhibition of β-lactamase Derived from P-99
# Experimental: Representative compounds of formula I were evaluated as inhibitors of the Class C β-lactamase of Enterobacter cloacae P-99, a cephalosporinase, and TEM-1, a penicillinase, by relative IC50 analysis. The IC50 value represents the concentration of inhibitor required to effect a 50% loss of activity of free enzyme. The IC50 value of each compound was determined as follows. […]
observable: pIC50
Convention used: pIC50 is expressed as -log10 of the molar concentration.

Ask: GET /values?readout=pIC50&item= C=C1C(C)=C(C(=O)O)N2C(=O)C(=CC(=O)OC(C)(C)C)C2S1(=O)=O (stereo not shown) [Compound 6d]
Reply: 4.31

Ask: What does the data say about its pIC50? Entry: C=C1C(CSc2nnnn2C)=C(C(=O)O)N2C(=O)C(=CC(=O)OC(C)(C)C)C2S1(=O)=O (stereo not shown) [Compound 6f]
Reply: 5.62

Ask: # input molecule: C=C1C(COC(C)=O)=C(C(=O)O)N2C(=O)C(=CC(=O)OC(C)(C)C)C2S1(=O)=O (stereo not shown) [Compound 6b] ; wanted: its pIC50
Reply: 5.81

Ask: Name the recorded pIC50 for C=C1C(C)=C(C(=O)O)N2C(=O)C(=Cc3ccccn3)C2S1(=O)=O (stereo not shown) [Compound 6c] .
Reply: 7.41

* * *

# measuredTarget: TEM-1, a penicillinase (Escherichia coli, UniProt P62593)
# Sequence (P62593 24-286 limits assumed): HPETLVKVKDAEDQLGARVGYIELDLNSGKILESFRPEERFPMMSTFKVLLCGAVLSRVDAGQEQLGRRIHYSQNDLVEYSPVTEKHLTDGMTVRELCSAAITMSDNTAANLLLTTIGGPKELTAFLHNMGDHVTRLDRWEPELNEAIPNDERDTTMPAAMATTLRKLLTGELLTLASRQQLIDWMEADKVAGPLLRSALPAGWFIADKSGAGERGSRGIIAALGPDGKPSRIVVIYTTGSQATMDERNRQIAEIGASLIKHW
# assayProcedure: IC50 for inhibition of TEM-1 β-lactamase (nitrocefin hydrolysis)
# Format: biochemical
# conditionParameters: Table 1; 10 minute incubation of enzyme (2.56 nM) and inhibitor, nitrocefin hydrolysis; relative to tazobactam standard; read-out: IC50 Values for Inhibition of β-lactamase Derived from TEM-1
observable: pIC50
Keep in mind that pIC50 stands for -log10 of concentration in molar terms.

[
  {
    "compound": "C=C1C(COC(C)=O)=C(C(=O)O)N2C(=O)/C(=C/C(=O)O)C2S1(=O)=O (centres unmarked) [Compound 6h]",
    "measuredTarget": "TEM-1, a penicillinase (Escherichia coli, UniProt P62593)",
    "result": 3.30
  }
]

Please look at the following compound next.
Ask: Fill blank: measured pIC50 of the compound C=C1C(C)=C(C(=O)O)N2C(=O)/C(=C/C(=O)O)C2S1(=O)=O (centres unmarked) [Compound 6i] is ____.
Reply: 3.56

* * *

The following compounds are shown together with reported pIC50 values.
# measuredTarget: Class C β-lactamase of Enterobacter cloacae P-99 (Enterobacter cloacae, UniProt P05364)
# Sequence (P05364 21-381): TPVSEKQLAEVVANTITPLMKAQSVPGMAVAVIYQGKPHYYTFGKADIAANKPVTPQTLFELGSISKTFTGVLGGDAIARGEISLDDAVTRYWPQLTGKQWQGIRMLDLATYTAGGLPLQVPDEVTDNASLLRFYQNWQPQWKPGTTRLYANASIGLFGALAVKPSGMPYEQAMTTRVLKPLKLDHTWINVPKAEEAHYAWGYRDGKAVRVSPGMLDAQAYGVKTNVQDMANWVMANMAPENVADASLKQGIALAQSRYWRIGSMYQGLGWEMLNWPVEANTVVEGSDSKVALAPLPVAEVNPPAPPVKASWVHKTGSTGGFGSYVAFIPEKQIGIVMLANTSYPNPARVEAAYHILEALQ
# assayProcedure: IC50 for inhibition of Class C β-lactamase of Enterobacter cloacae P-99 (nitrocefin hydrolysis)
# Assay type: biochemical
The read-out pIC50 is expressed as -log10 of concentration in moles per litre.

[
  {
    "compound": "COC(=O)/C=C/C1=C(C(=O)O)N2C(=O)/C(=C/c3ccccn3)C2S(=O)(=O)C1 (stereo not drawn) [Compound 13b]",
    "pIC50": 6.70
  },
  {
    "compound": "Cn1nnnc1SCC1=C(C(=O)O)N2C(=O)C(=CC(=O)OC(C)(C)C)C2S(=O)(=O)C1 (stereo not drawn) [II: R1=CO2-t-Bu, R3=CH2S(C2N4H3), reference compound]",
    "pIC50": 3.95
  }
]

Ask: Need pIC50, item CC1=C(C(=O)O)N2C(=O)C(=CC(=O)OC(C)(C)C)C2S(=O)(=O)C1 (stereo not drawn) [II: R1=CO2-t-Bu, R3=CH3, reference compound]
Reply: 3.70

Ask: Quick check: pIC50 of N#C/C=C/C1=C(C(=O)O)N2C(=O)/C(=C/c3ccccn3)C2S(=O)(=O)C1 (stereo not drawn) [Compound 13a] ?
Reply: 8.00

Ask: // lookup pIC50 for N#CC1=C(C(=O)O)N2C(=O)/C(=C/c3ccccn3)C2S(=O)(=O)C1 (stereo not drawn) [Compound 19]
Reply: 7.54

Ask: Would you mind telling me what pIC50 value was observed for C=C1C(=O)N2C(C(=O)O)=C(COC(C)=O)C(=C)S(=O)(=O)C12 (stereo not drawn) [III: R3=CH2OAc, reference compound] ?
Reply: 3.50

Ask: Please give the measured pIC50 for this compound: C=C1C(COC(C)=O)=C(C(=O)O)N2C(=O)C(=Cc3ccccn3)C2S1(=O)=O (stereo not drawn) [Compound 6a]
Reply: 6.78

Ask: Dear colleague, I am looking for the recorded pIC50 of the following compound: CC1=C(C(=O)O)N2C(=O)/C(=C/c3ccccn3)C2S(=O)(=O)C1 (stereo not drawn) [II: R1=2-pyr, R3=CH3, reference compound]
Reply: 5.21

Ask: Return reported pIC50; argument: CC(=O)OCC1=C(C(=O)O)N2C(=O)C(=Cc3ccccn3)C2S(=O)(=O)C1 (stereo not drawn) [II: R1=2-pyr, R3=CH2OAc, reference compound]
Reply: 5.87

* * *

# measuredTarget: TEM-1, a penicillinase (Escherichia coli, UniProt P62593)
# assayProcedure: IC50 for inhibition of TEM-1 β-lactamase (nitrocefin hydrolysis)
# Type: biochemical
# conditionParameters: Table 2; compounds of formula IV; procedure similar to Table 1; read-out: IC50 Values for Inhibition of β-lactamase Derived from TEM-1
# IC50 values compiled below

Ask: # get_value(readout='IC50', item= N#C/C=C/C1=C(C(=O)O)N2C(=O)/C(=C/c3ccccn3)C2S(=O)(=O)C1 (stereo not drawn) [Compound 13a] )
Reply: 2700 nM

Ask: Given COC(=O)/C=C/C1=C(C(=O)O)N2C(=O)/C(=C/c3ccccn3)C2S(=O)(=O)C1 (stereo not drawn) [Compound 13b] , state its recorded IC50.
Reply: 20 nM

Ask: Which IC50 value belongs to O=C(O)C1=C(/C=C/c2cccc[n+]2[O-])CS(=O)(=O)C2/C(=C\c3ccccn3)C(=O)N12 (stereo not drawn) [Compound 13c] ?
Reply: 6 nM

Ask: Reported IC50 for O=C(O)/C=C/C1=C(C(=O)O)N2C(=O)/C(=C/c3ccccn3)C2S(=O)(=O)C1 (stereo not drawn) [Compound 13g] : what is it?
Reply: 2520 nM

Ask: Entry under review: N#CC1=C(C(=O)O)N2C(=O)/C(=C/c3ccccn3)C2S(=O)(=O)C1 (stereo not drawn) . Reported IC50?
Reply: 2340 nM

Ask: Could you tell me which IC50 is on file for COC(=O)/C(Cl)=C/C1=C(C(=O)O)N2C(=O)/C(=C/c3ccccn3)C2S(=O)(=O)C1 (stereo not drawn) [Compound 13f] ?
Reply: 20 nM

* * *

# measuredTarget: TEM-1, a penicillinase (Escherichia coli, UniProt P62593)
# assayProcedure: IC50 for inhibition of TEM-1 β-lactamase (nitrocefin hydrolysis)
# Assay type: biochemical
# conditionParameters: read-out: IC50 Values for Inhibition of β-lactamase Derived from TEM-1
Each entry below carries its recorded pIC50.
Answer as the number alone; pIC50 is minus log10 of concentration in mol/L.

Recorded results for 3 molecules are shown here.
[
  {
    "molecule": "CC1=C(C(=O)O)N2C(=O)/C(=C/c3ccccn3)C2S(=O)(=O)C1 (centres unmarked) [II: R1=2-pyr, R3=CH3, reference compound]",
    "measuredTarget": "TEM-1, a penicillinase (Escherichia coli, UniProt P62593)",
    "result": 3.42
  },
  {
    "molecule": "CC1=C(C(=O)O)N2C(=O)C(=CC(=O)OC(C)(C)C)C2S(=O)(=O)C1 (centres unmarked) [II: R1=CO2-t-Bu, R3=CH3, reference compound]",
    "measuredTarget": "TEM-1, a penicillinase (Escherichia coli, UniProt P62593)",
    "result": 3.95
  },
  {
    "molecule": "CC(=O)OCC1=C(C(=O)O)N2C(=O)C(=Cc3ccccn3)C2S(=O)(=O)C1 (centres unmarked) [II: R1=2-pyr, R3=CH2OAc, reference compound]",
    "measuredTarget": "TEM-1, a penicillinase (Escherichia coli, UniProt P62593)",
    "result": 4.84
  }
]

Please examine the following record next.
Ask: Given Cn1nnnc1SCC1=C(C(=O)O)N2C(=O)C(=CC(=O)OC(C)(C)C)C2S(=O)(=O)C1 (centres unmarked) [II: R1=CO2-t-Bu, R3=CH2S(C2N4H3), reference compound] , state its recorded pIC50.
Reply: 6.91
